test system: RXF 393 renal; experiment: NCI tumour cell line growth inhibition, 48 h; in the data active = GI50 below about 0.43 µM; inactive = the rest
Hi there, use one of these labels in your reply, thanks! 1 (yes) = active, 0 (no) = inactive

Known results for compounds:
- compound: "COc1ccc(C2=C(c3ccc(OC)cc3)C(=O)N3CCCC3C2)cc1 (configuration not stated)"
  classLabel: "0 (no)"
- compound: "C=CCc1ccc(O)c(-c2ccc(O)c(CC=C)c2)c1"
  classLabel: "0 (no)"
- compound: "COc1ccc(C(O)(CCC(C)C)C(CN2CCOCC2)c2ccc(Cl)cc2)cc1 (configuration not stated)"
  classLabel: "0 (no)"
- compound: "O=[N+]([O-])c1cccc2ccc(N/N=C/c3ccccc3O)nc12"
  classLabel: "0 (no)"
- compound: "Cc1cc(N(CCCNc2ccnc3cc(Cl)ccc23)Cc2ccc3c(c2)OCO3)nc(N2CCOCC2)n1"
  classLabel: "1 (yes)"

Task: Hi team, can someone confirm the assay call for BrCc1cccc(C[P+](c2ccccc2)(c2ccccc2)c2ccccc2)c1 ?
Result: 0 (no)

Task: Hi team, can someone confirm the assay call for CCOC(=O)c1c(-c2ccc(OC)cc2)c(C#N)c2c(C#N)c(N)nn2c1N ?
Result: 0 (no)

Task: Hi team, can someone confirm the assay call for Nc1c(C(=O)c2ccccc2)cnn1-c1ccc(F)cc1 ?
Result: 0 (no)

Task: Hi team, can someone confirm the assay call for CC1CCN(C(=O)OCc2nc3nc(Cl)nc(N4CCOCC4)c3[nH]2)CC1 ?
Result: 0 (no)

Task: Hi team, can someone confirm the assay call for Cn1c(=O)c(Oc2ccc(F)cc2)cc2cnc(NC3CCOCC3)nc21 ?
Result: 0 (no)

Task: Hi team, can someone confirm the assay call for COc1ccc(-c2nnc(N3CCN(C(=O)CN4CCN(c5ccccc5)CC4)CC3)nc2-c2ccc(OC)cc2)cc1 ?
Result: 0 (no)

Task: Hi team, can someone confirm the assay call for CCOC(=O)/C=C/c1ccc(C#Cc2ccccc2)cc1 ?
Result: 0 (no)

Task: Hi team, can someone confirm the assay call for Nc1ccn(C2OC(CO)C(O)C2O)c(=O)n1 (configuration not stated) ?
Result: 0 (no)

Task: Hi team, can someone confirm the assay call for C#Cc1nc(Nc2cc(C)[nH]n2)c2ccccc2n1 ?
Result: 1 (yes)

Task: Hi team, can someone confirm the assay call for CN(C)c1ccc(N=Nc2ccccn2)c(O)c1 ?
Result: 1 (yes)

Task: Hi team, can someone confirm the assay call for CCc1ccc(/C=C/c2ccc(O)c3ncccc23)[n+](C)c1 ?
Result: 0 (no)

Task: Hi team, can someone confirm the assay call for COc1cc(/C=C/C(=O)c2cccc(-n3cc(-c4ccc(Cl)cc4)[nH]c3=O)c2)ccc1O ?
Result: 0 (no)

====

tested on: SF-295 CNS; assay: NCI tumour cell line growth inhibition, 48 h
Measured GI50, listed per entry.

Answered examples (5):
- compound: "CSc1nc(NC2OC(COC(C)=O)C(OC(C)=O)C(OC(C)=O)C2OC(C)=O)c(N=CC=Nc2c(NC3OC(COC(C)=O)C(OC(C)=O)C(OC(C)=O)C3OC(C)=O)nc(SC)n(C)c2=O)c(=O)n1C (stereo not drawn)"
  GI50: "> 50 µM"
- compound: "O=C(Nc1cc(C(F)(F)F)ccc1Cl)c1cccc(NC2=C(Cl)C(=O)N(Cc3ccccc3)C2=O)c1"
  GI50: "29.1 µM"
- compound: "CCOC(=O)/C=C/c1ccc(C#Cc2ccccc2)cc1"
  GI50: "55.1 µM"
- compound: "COC(=O)c1ccc2c(c1)/C(=C\\c1cc(Br)c(O)c(Br)c1)C(=O)N2"
  GI50: "5.1 µM"
- compound: "CSc1ccccc1C#C/C=C\\C#Cc1ccccc1N"
  GI50: "1.83 µM"

Just so you know, measured GI50 for CCCCCCCN=C(N)c1ccc(N2CCN(c3ccc(C(N)=NCCCCCCC)cc3)CC2)cc1 came out at 0.0628 µM

Just so you know, measured GI50 for O=C(Nc1ccc(Cl)c(C(F)(F)F)c1)c1ccc(NC2=C(Cl)C(=O)N(Cc3ccccc3)C2=O)cc1 came out at 19.7 µM

Just so you know, measured GI50 for Cn1c(Nc2ccc(C(F)(F)F)cc2)nc2cc(Oc3ccnc(-c4ncc(C(F)(F)F)[nH]4)c3)ccc21 came out at 0.402 µM
